What follows is literature data on IC50 for Vascular endothelial growth factor receptor 2 (Homo sapiens).

Answered examples (8):
>  <molecule>
COc1ccc(O)cc1-c1ccnc2cc(-c3cc(OC)c(OC)c(OC)c3)oc12

>  <IC50>
0.3 to 3 µM

$$$$
>  <molecule>
O=C(c1cccc(NS(=O)(=O)N2CCCC2)c1F)c1c[nH]c2ncc(-c3ccc(Cl)cc3)cc12

>  <IC50>
≤ 10 µM

$$$$
>  <molecule>
O=C(Nc1ccc(Oc2ccnc(-c3nnco3)c2)cc1)Nc1cc(C(F)(F)F)c(Cl)cc1OCCN1CCCC1

>  <IC50>
≤ 10 µM

$$$$
>  <molecule>
Cc1cnc2[nH]cc(C(=O)c3c(F)ccc(NS(=O)(=O)c4ncn[nH]4)c3F)c2c1

>  <IC50>
≤ 10 µM

$$$$
>  <molecule>
CC(C)n1cc(C(=O)Nc2ccc(Oc3ccnc4cc(OCCCN5CCC(C)(N)CC5)c5c(c34)OCCO5)c(F)c2)c(=O)n(-c2ccc(F)cc2)c1=O

>  <IC50>
0.05 to 0.5 µM

$$$$
>  <molecule>
N#Cc1cnc2[nH]cc(C(=O)c3cccc(NS(=O)(=O)c4c(F)cccc4F)c3F)c2c1

>  <IC50>
≤ 10 µM

$$$$
>  <molecule>
C=CC(=O)Nc1cc2c(Nc3ccc(Br)cc3F)ncnc2cc1OCCNC(=O)C(CO)N(C)C (stereo not drawn)

>  <IC50>
0.797 µM

$$$$
>  <molecule>
NC(=O)c1ccc(-c2ccnc3[nH]cc(C(=O)c4ccccc4F)c23)cc1

>  <IC50>
≤ 10 µM

$$$$

*Q* What value of measured IC50 is listed for Nc1c(-c2ccc(F)cc2)c(-c2ccncc2)nn1-c1ccccc1 ?
*A* 2.4 µM

*Q* Queued: COCCOc1cc2ncnc(Oc3ccc(NC(=O)Nc4ccc(Cl)c(C(F)(F)F)c4)cc3)c2c2c1OCCO2
*A* < 0.05 µM

*Q* Queued: CCCc1ccc(S(=O)(=O)Nc2ccc(F)c(C(=O)c3c[nH]c4ncc(-c5cnn(C)c5)cc34)c2F)cc1
*A* ≤ 10 µM

*Q* Queued: N#Cc1ccc(CC(=O)Nc2ccc(C(=O)c3ccc4ncc(N5CCNCC5)nc4c3)c(F)c2)cc1C(F)(F)F
*A* < 0.1 µM

*Q* Queued: CCOc1ccn(-c2ccc(F)cc2)c(=O)c1C(=O)Nc1ccc(Oc2ccnc3cc(OCCCN4CCOCC4)c4c(c23)OCCO4)c(Cl)c1
*A* ≤ 0.05 µM

*Q* Queued: COc1cc2nccc(Oc3ccc(NC(=S)N4CC[C@H](O)C4)c(Cl)c3)c2cc1C(N)=O
*A* 0.05 to 0.2 µM

*Q* Queued: Fc1nc(NCc2ccc(C(F)(F)F)nc2)ccc1Cc1c[nH]c2ncncc12
*A* ≤ 10 µM

----------
What follows is literature data on pIC50 for Vascular endothelial growth factor receptor 2 (Homo sapiens, UniProt P35968).
pIC50: −log10 of the molar value.

Answered examples (3):
>  <cpd smiles>
N#CCc1cc(NC(=O)NCC(F)(F)F)cc(-c2cnc3cc(-c4ccnc(C(F)(F)F)n4)ccn23)c1

>  <result>
< 5.52

$$$$
>  <cpd smiles>
COCCOc1cc2nccc(Sc3ccc(NC(=O)Nc4nccs4)s3)c2cc1C#N

>  <result>
7.51

$$$$
>  <cpd smiles>
COc1cc(C2=C(c3cn(CCCN(C)C)c4ccccc34)C(=O)NC2=O)cc(OC)c1OC

>  <result>
< 5.00

$$$$

*Q* pIC50 of COc1ncc(-c2cnc3[nH]cc(C(=O)c4c(F)ccc(NS(=O)(=O)c5c(F)cccc5F)c4F)c3c2)cn1 on Vascular endothelial growth factor receptor 2 (Homo sapiens, UniProt P35968)?
*A* ≥ 5.00

----------
What follows is literature data on IC50 for Vascular endothelial growth factor receptor 2 (Homo sapiens, UniProt P35968).

>  <compound>
CC(=O)SCCCCCCOc1cc2nccc(Oc3ccc(NC(=O)NC4CC4)c(Cl)c3)c2cc1C(N)=O

>  <IC50>
2.6 nM

$$$$
>  <compound>
CCSc1ccc(CN2CCN(c3ccc(-c4cc(-c5cnn(C)c5)cn5ncc(C#N)c45)cn3)CC2)cn1

>  <IC50>
13 nM

$$$$
>  <compound>
COc1cc2nccc(Oc3ccc(NC(=O)c4c(C)n(C)c(C)c(N5CCCCC5)c4=O)cc3F)c2nc1OC

>  <IC50>
100 to 300 nM

$$$$
>  <compound>
Fc1nc(NCc2ccc(Br)cn2)ccc1Cc1c[nH]c2ncncc12

>  <IC50>
≤ 10000 nM

$$$$
>  <compound>
O=C(NC1CC1)c1ccc(F)c(CNc2cnc3[nH]c(-c4ccccc4)cc3c2)c1

>  <IC50>
103 nM

$$$$
>  <compound>
CCCS(=O)(=O)Nc1cccc(C(=O)c2c[nH]c3nccc(C#N)c23)c1F

>  <IC50>
≤ 10000 nM

$$$$
>  <compound>
Cn1cc(-c2cnc3[nH]cc(C(=O)c4cc(NS(=O)(=O)c5cccc(C(F)(F)F)c5)ccc4F)c3c2)cn1

>  <IC50>
≤ 10000 nM

$$$$
>  <compound>
Cc1cc(C(=O)c2c[nH]c3ncc(-c4cccc(C(N)=O)c4)cc23)n(C)n1

>  <IC50>
≤ 10000 nM

$$$$
>  <compound>
CN1CCC(Nc2cc(NC(=O)Nc3ccc(Oc4ccnc(NC(=O)C5CC5)c4)c(F)c3)cc(C(F)(F)F)c2)CC1

>  <IC50>
12.2 nM

$$$$
>  <compound>
COc1ccc(-c2cc3nccc(Nc4ccc5[nH]ccc5c4C)c3o2)cc1OC

>  <IC50>
< 300 nM

$$$$

*Q* What value of measured IC50 is listed for COCCCNc1nccn2nc(Nc3cc(OC)cc(OC)c3)nc12 ?
*A* 3000 to 50000 nM

*Q* Queued: CC(C)CNc1ccc(Cc2c[nH]c3ncccc23)cn1
*A* ≤ 10000 nM

*Q* Queued: COc1cc(OC)cc(C(=O)c2c[nH]c3ncccc23)c1
*A* ≤ 10000 nM

----------
pIC50: −log10 of the molar value.
What follows is literature data on pIC50 for Vascular endothelial growth factor receptor 2 (Homo sapiens).

Answered examples (10):
>  <cpd smiles>
COc1cc(OC)cc(N(CC2CC2)c2ccc3ncc(Nc4nncs4)nc3c2)c1

>  <pIC50>
< 6.00

$$$$
>  <cpd smiles>
Cc1cc(Oc2ccnc(NC(=O)C3CC3)c2)ccc1NC(=O)Nc1ccc(F)c(C(C)(F)F)c1

>  <pIC50>
8.00

$$$$
>  <cpd smiles>
c1cc(-c2noc(C3CC3)n2)c2cc[nH]c2n1

>  <pIC50>
≥ 5.00

$$$$
>  <cpd smiles>
COc1ccnc2[nH]cc(C(=O)c3c(F)ccc(NS(=O)(=O)c4ccc(F)cc4F)c3F)c12

>  <pIC50>
≥ 5.00

$$$$
>  <cpd smiles>
C=CC(=O)Nc1cc2c(Nc3c(F)cc(Br)cc3F)ncnc2cc1OCC1CCN(C(C)=O)CC1

>  <pIC50>
6.83

$$$$
>  <cpd smiles>
C[C@@H](O)[C@@H](C)Oc1nc(Nc2ccc(NC(=O)N=S(C)(C)=O)cc2)ncc1Br

>  <pIC50>
6.80

$$$$
>  <cpd smiles>
CCCS(=O)(=O)Nc1ccc(F)c(C(=O)c2c[nH]c3ncc(-c4ncc(C)n4C)cc23)c1F

>  <pIC50>
≥ 5.00

$$$$
>  <cpd smiles>
Cn1cc(-c2cnc3[nH]cc(C(=O)c4cccc(NS(=O)(=O)c5cccnc5)c4)c3c2)cn1

>  <pIC50>
≥ 5.00

$$$$
>  <cpd smiles>
CCC(CC)CCNC(=O)c1ccccc1NCc1ccnc(NC(C)=O)c1

>  <pIC50>
7.72

$$$$
>  <cpd smiles>
COc1cc2nccc(Oc3ccc(NC(=S)NCCN4CCOCC4)c(Cl)c3)c2cc1C(N)=O

>  <pIC50>
6.00 to 6.70

$$$$

*Q* What value of measured pIC50 is listed for COc1ccn(-c2ccc(F)cc2)c(=O)c1C(=O)Nc1ccc(Oc2ncnc3cc(OCCCN4CCOCC4)c4c(c23)OCCO4)c(F)c1 ?
*A* 6.30 to 7.30

----------
What follows is literature data on pIC50 for UniProt P35968.
pIC50: −log10 of the molar value.

>  <compound>
O=C1Nc2ncc(-c3ccsc3)cc2C1=CNc1ccc2ncccc2c1

>  <study system>
UniProt P35968

>  <assay endpoint>
pIC50

>  <result>
5.00 to 6.00

$$$$
>  <compound>
Cc1[nH]c(/C=C2\C(=O)Nc3ccc(F)cc32)c(C)c1NC(=O)C1CCN(C)CC1

>  <study system>
UniProt P35968

>  <assay endpoint>
pIC50

>  <result>
6.85

$$$$
>  <compound>
COc1cccc(-c2cnc3[nH]ccc3c2)c1

>  <study system>
UniProt P35968

>  <assay endpoint>
pIC50

>  <result>
≥ 5.00

$$$$
>  <compound>
CC(C)(O)COc1cc(-c2ccc(N3C[C@@H]4[C@@H](CNC(=O)c5ncccc5Cl)[C@@H]4C3)nc2)c2c(C#N)cnn2c1

>  <study system>
UniProt P35968

>  <assay endpoint>
pIC50

>  <result>
< 7.00

$$$$
>  <compound>
CN(C)S(=O)(=O)Nc1ccc(F)c(C(=O)c2c[nH]c3nccc(Cl)c23)c1F

>  <study system>
UniProt P35968

>  <assay endpoint>
pIC50

>  <result>
≥ 5.00

$$$$
>  <compound>
O=C(Nc1ccc(Nc2ncnc3cc(OCCCN4CCOCC4)c4c(c23)OCCO4)cc1Cl)NC1CC1

>  <study system>
UniProt P35968

>  <assay endpoint>
pIC50

>  <result>
> 7.30

$$$$
>  <compound>
CCS(=O)(=O)Nc1ccc(F)c(C(=O)c2c[nH]c3nccc(Cl)c23)c1F

>  <study system>
UniProt P35968

>  <assay endpoint>
pIC50

>  <result>
≥ 5.00

$$$$
>  <compound>
CCCS(=O)(=O)Nc1ccc(F)c(C(=O)c2c[nH]c3ncc(-c4ccc(S(=O)(=O)C(C)C)cc4)cc23)c1F

>  <study system>
UniProt P35968

>  <assay endpoint>
pIC50

>  <result>
≥ 5.00

$$$$
>  <compound>
COc1cc(C2=C(c3cn(CCN4CCOCC4)c4ccccc34)C(=O)NC2=O)cc(OC)c1OC

>  <study system>
UniProt P35968

>  <assay endpoint>
pIC50

>  <result>
5.04

$$$$
>  <compound>
Cc1ccc(NC(=O)c2cccc(C(F)(F)F)c2)cc1[C@H](C)Nc1cncc(Cl)n1

>  <study system>
UniProt P35968

>  <assay endpoint>
pIC50

>  <result>
> 7.00

$$$$

*Q* What value of measured pIC50 is listed for CCCS(=O)(=O)Nc1ccc(F)c(Nc2ncnc3ccc(-c4cnc(OC)c([N+](=O)[O-])c4)cc23)c1F ?
*A* < 5.52

*Q* Queued: COc1cc2nccc(Oc3ccc(NC(=S)NC4CCC4)c(Cl)c3)c2cc1C(N)=O
*A* > 7.30

*Q* Queued: O=C(Nc1cccc(C(=O)c2ccc3ncc(N4CCOCC4)nc3c2)c1)Nc1ccc(Cl)c(C(F)(F)F)c1
*A* > 7.00

*Q* Queued: O=C(c1cccc(NS(=O)(=O)c2cccnc2)c1)c1c[nH]c2ncc(Cl)cc12
*A* ≥ 5.00

*Q* Queued: CCn1cc(C(=O)Nc2ccc(Oc3ccnc4cc(OCCOC)c5c(c34)OCCO5)c(F)c2)c(=O)n(-c2ccc(F)cc2)c1=O
*A* 6.30 to 7.30

*Q* Queued: Cc1[nH]c2c(c1C(=O)NCC(O)CN1CCN(C)CC1)CCC/C2=C1/C(=O)Nc2ccc(F)cc21 (stereo not shown)
*A* 7.60
